- Tested on: E. coli, LN 3164
- Measurement protocol: Effect of chemosensitising compounds on DR (DR ratio) with ciprofloxacin, microtiter assay
- Format: cell-based
- Test parameters: MIC ciprofloxacin alone / MIC ciprofloxacin + chemosensitising compound at ¼ of its MIC; E. coli LN 3164
Hi there, I'd appreciate the recorded DR ratio for every entry that follows.
Answer as a number with no unit attached.

-- ask Any idea what DR ratio was measured for `CN(C)CCCN1c2ccccc2Sc2ccc(Cl)cc21` ?
-- reply 4

-- ask Please do the same for `OCCN1CCN(CCCN2c3ccccc3Sc3ccc(C(F)(F)F)cc32)CC1` as well.
-- reply 8

-- ask What about this molecule? `OCCN1CCN(CCCN2c3ccccc3Sc3ccc(Cl)cc32)CC1`
-- reply 4

-- ask Another: `CN1CCN(CCCN2c3ccccc3Sc3ccc(C(F)(F)F)cc32)CC1`
-- reply 16

-- ask Same question, `CNCCCN1c2ccccc2Sc2ccc(Cl)cc21` this time
-- reply 2

-- ask What do you get for CC(CN1c2ccccc2Sc2ccccc21)N(C)C (stereo not shown) ?
-- reply 8

-- ask Then `CN(C)CCN1c2ccccc2Sc2ccc(Cl)cc21` ?
-- reply 2

-- ask Same read-out for OCCN1CCN(CC/C=C2\c3ccccc3Sc3ccc(C(F)(F)F)cc32)CC1 [trans-flupenthixol] ?
-- reply 64

-- ask Now the same for `CN(C)CCCN1c2ccccc2Sc2ccccc21`
-- reply 2

-- ask # repeat for `CSc1ccc2c(c1)N(CCCN(C)C)c1ccccc1S2`
-- reply 4

====

- Measurement protocol: Cytotoxic effect in uninfected MT4 cultures
- Format: cell-based
- Test parameters: human, uninfected MT4 cells; compound alone; uninfected MT4
Measured parameter: CC50 at 6 days

-- ask Record request: CC50 at 6 days value, item Cc1cn([C@H]2C[C@H](N=[N+]=[N-])[C@@H](CO)O2)c(=O)[nH]c1=O [AZT, 3′-Azido-3′-deoxythymidine, reference compound]
-- reply > 3 µM

====

- Tested on: E. coli, LN 3164
- Measurement protocol: Effect of chemosensitising compounds on DR (DR ratio) with ciprofloxacin, microtiter assay
- Assay type: cell-based
- Test parameters: MIC ciprofloxacin alone / MIC ciprofloxacin + chemosensitising compound at ¼ of its MIC; E. coli LN 3164
DR ratio strictly less than 4 = MET. Otherwise NOT MET.

-- ask Consider CN(C)CCCN1c2ccccc2Sc2cccc(Cl)c21 [1-chlorpromazine] . Does its DR ratio lie strictly below 4?
-- reply MET

-- ask Continue with OCCN1CCN(CC/C=C2\c3ccccc3Sc3ccc(Cl)cc32)CC1 [trans-clopenthixol]
-- reply NOT MET

-- ask What would you report for OCCN1CCN(CC/C=C2/c3ccccc3Sc3ccc(C(F)(F)F)cc32)CC1 [cis-flupenthixol, reference compound] ?
-- reply NOT MET

-- ask Quick one: CN(C)CCCN1c2ccccc2Sc2ccc(C(F)(F)F)cc21 [Trifluopromazine, trifluopromazine]
-- reply NOT MET

-- ask Would you mind doing CN(C)CCCN1c2ccc(O)cc2Sc2ccc(Cl)cc21 [7-hydroxy-chlorpromazine, 7-hydroxychlorpromazine] as well?
-- reply MET

-- ask Please do the same for CN(C)CCCN1c2cc(Cl)ccc2Sc2cc(O)c(O)cc21 [7,8-dihydroxy-chlorpromazine, 7,8-dihydroxychlorpromazine] as well.
-- reply MET
